# credit: patent US20240425496A1

For each entry below, report its IC50 value.

**Query** What measured IC50 is associated with Cc1cnc(Nc2cnn(C)c2)nc1N1CC(CC#N)(N2CC3(C2)CC3(F)F)C1 [E161a] on TYK2 (Homo sapiens (Human))?
**Result** < 20 nM

**Query** Return IC50 measured with TYK2 (Homo sapiens (Human)) given this compound: Cc1cc(Nc2ncc(C)c(N3CC(CC#N)(N4CCN5CCC[C@@]5(C)C4)C3)n2)sn1 [E84a]
Sequence (P29597 whole entry, species assumed): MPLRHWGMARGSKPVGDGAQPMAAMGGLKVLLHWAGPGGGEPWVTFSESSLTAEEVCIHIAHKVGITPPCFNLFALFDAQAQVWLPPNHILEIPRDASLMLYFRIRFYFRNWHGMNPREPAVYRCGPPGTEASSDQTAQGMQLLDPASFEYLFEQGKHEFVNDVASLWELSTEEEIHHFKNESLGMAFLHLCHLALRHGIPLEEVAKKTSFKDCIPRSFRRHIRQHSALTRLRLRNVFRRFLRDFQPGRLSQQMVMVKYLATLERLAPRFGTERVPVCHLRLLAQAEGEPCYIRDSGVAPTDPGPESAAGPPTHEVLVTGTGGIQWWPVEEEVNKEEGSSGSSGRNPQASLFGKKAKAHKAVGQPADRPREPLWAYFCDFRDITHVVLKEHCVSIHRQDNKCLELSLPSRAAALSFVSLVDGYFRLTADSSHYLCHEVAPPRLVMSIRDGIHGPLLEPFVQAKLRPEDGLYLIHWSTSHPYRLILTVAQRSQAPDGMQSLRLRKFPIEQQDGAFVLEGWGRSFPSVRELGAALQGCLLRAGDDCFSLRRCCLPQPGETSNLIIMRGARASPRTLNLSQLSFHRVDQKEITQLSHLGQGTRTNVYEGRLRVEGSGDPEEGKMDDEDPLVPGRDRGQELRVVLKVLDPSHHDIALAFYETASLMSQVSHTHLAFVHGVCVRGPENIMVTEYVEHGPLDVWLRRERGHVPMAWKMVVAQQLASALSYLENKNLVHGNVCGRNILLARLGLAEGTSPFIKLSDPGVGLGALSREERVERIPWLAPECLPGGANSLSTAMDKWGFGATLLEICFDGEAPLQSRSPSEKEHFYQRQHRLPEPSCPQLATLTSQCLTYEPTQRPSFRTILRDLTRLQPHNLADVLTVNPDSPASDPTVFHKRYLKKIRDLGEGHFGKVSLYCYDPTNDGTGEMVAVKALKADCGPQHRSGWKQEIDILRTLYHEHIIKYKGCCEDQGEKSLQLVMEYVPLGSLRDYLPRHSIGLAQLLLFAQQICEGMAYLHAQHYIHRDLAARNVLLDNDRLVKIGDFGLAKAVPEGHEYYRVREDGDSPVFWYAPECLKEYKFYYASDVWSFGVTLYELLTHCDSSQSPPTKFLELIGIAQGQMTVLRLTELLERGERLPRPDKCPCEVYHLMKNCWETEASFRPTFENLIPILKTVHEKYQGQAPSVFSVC
**Result** < 10 nM

**Query** Could you share what IC50 was measured for Cc1cc(Nc2ncc(C)c(N3CC(CC#N)(N4CCn5cncc5C4)C3)n2)sn1 [E93a] , tested on TYK2 (Homo sapiens (Human))?
**Result** < 10 nM

**Query** Hello, I am looking for reported IC50 with TYK2 (Homo sapiens (Human)) for Cc1cc(Nc2ncc(C)c(N3CC(CC#N)(N4CCN5CCN(C)CC5C4)C3)n2)sn1 (centres unmarked) [E73a] . Could you help?
**Result** < 100 nM

**Query** Entry Cc1cc(Nc2ncc(C)c(N3CC(C4CC4)C3)n2)sn1 [E108a] , system TYK2 (Homo sapiens (Human)): what IC50 was measured?
**Result** < 10 nM
